system: SF-539 CNS; assay: NCI tumour cell line growth inhibition, 48 h; in the data active = GI50 below about 0.43 µM; inactive = the rest
Outcomes: t for active, f for inactive

{"MOLECULE": "CCN(CC)CCOc1ccc2c(c1)C(=O)c1cc(OCCN(CC)CC)ccc1-2", "GROUP": "f"}
{"MOLECULE": "O=[N+]([O-])[O-].O=[N+]([O-])[O-].[Au].[Au].c1ccc([P-]c2ccccc2)cc1.c1ccc([P-]c2ccccc2)cc1", "GROUP": "f"}
{"MOLECULE": "COc1ccc(CC(NC(=O)[C@H](C)NC(=O)CN2CCOCC2)C(=O)N[C@@H](Cc2ccccc2)C(=O)[C@@]2(C)CO2)cc1 (some centres undefined)", "GROUP": "t"}
{"MOLECULE": "C1=C(c2ccccc2)C(c2ccc(OCCN3CCCCC3)cc2)Oc2ccccc21 (centres undefined)", "GROUP": "f"}
{"MOLECULE": "O=C(CNc1ncco1)Nc1ccc(S(=O)(=O)c2ccc(NC(=O)CNc3ncco3)cc2)cc1", "GROUP": "f"}
{"MOLECULE": "COc1ccc(-c2nnc(N3CCN(C(=O)CN4CCN(c5ccc(Cl)cc5)CC4)CC3)nc2-c2ccc(OC)cc2)cc1", "GROUP": "f"}
{"MOLECULE": "c1ccc2cc(Cn3c[n+](Cc4ccc5ccccc5c4)c4ccccc43)ccc2c1", "GROUP": "f"}
{"MOLECULE": "COC(=O)OCc1ccc2c(c1)C(=O)c1c-2n(CCCBr)c(=O)c2cc([N+](=O)[O-])ccc12", "GROUP": "f"}
{"MOLECULE": "N#C/C(N)=C(\\C#N)N=Cc1csc2ccccc12", "GROUP": "f"}

This collection of values is drawn from PubChem BioAssay (NCI).
